# Tested on: NCI-H522 lung
# TEST PROTOCOL: NCI tumour cell line growth inhibition, 48 h
Reported TGI is given for each of the following molecules.

>  <MOLECULE>
COC(=O)[C@H]1C=C[C@@H](C)n2c(=O)c3cc4ccccc4cc3c(=O)n21

>  <ENDPOINT NAME>
TGI

>  <RESULT>
> 100 µM

$$$$
>  <MOLECULE>
CC(=O)[O][Ga]([Br])[O]C(C)=O

>  <ENDPOINT NAME>
TGI

>  <RESULT>
> 100 µM

$$$$
>  <MOLECULE>
Cc1cc(C)c(NC(=O)c2sc3nc4c(cc3c2N)CN(Cc2ccccc2)CC4)c(C)c1

>  <ENDPOINT NAME>
TGI

>  <RESULT>
6.82 µM

$$$$
>  <MOLECULE>
CN1CCc2c(sc3ncn(C)c(=N)c23)C1

>  <ENDPOINT NAME>
TGI

>  <RESULT>
> 100 µM

$$$$
>  <MOLECULE>
O=c1cc(CO)oc(C(O)c2ccccc2)c1O (configuration not stated)

>  <ENDPOINT NAME>
TGI

>  <RESULT>
> 100 µM

$$$$
>  <MOLECULE>
COc1cc(N=Nc2cccc(S(=O)(=O)O)c2)ccc1N=Nc1ccc(/C=C/c2ccc(-n3on3-c3ccc(/C=C/c4ccc(N=Nc5ccc(N=Nc6cccc(S(=O)(=O)O)c6)cc5OC)cc4S(=O)(=O)O)c(S(=O)(=O)O)c3)cc2S(=O)(=O)O)c(S(=O)(=O)O)c1

>  <ENDPOINT NAME>
TGI

>  <RESULT>
> 100 µM

$$$$

// lookup TGI for CCC(C)C1NC(=O)C(NC(=O)c2c3[nH]c4c(C(=O)NC5C(=O)NC(C(C)CC)C(=O)N6CCCC6C(=O)N(C)CC(=O)N(C)C(C(C)C)C(=O)OC5C)ccc(C)c4oc-3c(C)c(=O)c2=O)C(C)OC(=O)C(C(C)C)N(C)C(=O)CN(C)C(=O)C2CCCN2C1=O (configuration not stated)
5.06 µM

Next record, please: O=C(O)c1ccc(OCc2ccccc2)c(Cl)c1
> 100 µM

Next entry: COC(=O)[C@H](Cc1c[nH]c2ccccc12)NC(=O)c1ccc(CNC(=O)/C(C)=C/c2ccccc2)cc1
62.8 µM

Try the molecule COc1ccc(-n2cnn3c(=O)c4cn[nH]c4nc23)cc1
> 10 µM

Again, but for COc1cc(C=O)c(-c2cc(OC)c(OC)cc2C=O)cc1OC
> 100 µM

Lookup CC(=O)O[C@H]1CCC2[C@@H]3CCC4Nc5[nH]ncc5C[C@]4(C)C3CC[C@@]21C (some centres not stated)
83.2 µM

Record: O=Cc1ccc2c(c1-c1c(C=O)ccc3c1OCO3)OCO2
> 100 µM

Similarly, CCOc1ccncc1[N+](=O)[O-] ?
> 100 µM

Same question for CC(C)C(=O)Nc1nc2c(ncn2C2OC(CO)C(O)C2O)c(=O)[nH]1 (configuration not stated) please.
> 100 µM

Consider next the molecule O=C1C=CC(=O)c2c1ccc1c3ccccc3n(-c3cccc([N+](=O)[O-])c3)c21 in the same way.
3.57 µM

Same question for N#Cc1[nH]c(=S)[nH]c1N please.
> 100 µM

Item: COc1cc(C(C)=O)cc(C(=O)N(C(C)C)C(C)C)c1[Si](C)(C)C
> 100 µM

Please answer likewise for CN(C)CCNC(=O)c1ccc2nc3c(nc2c1)C(=O)c1ccccc1-3
> 100 µM

Same question for CN(C)CC1CCC/C(=C\c2ccc(Cl)cc2)C1=O (configuration not stated) please.
3.27 µM

What do you get for C=C(C(=O)O)[C@@H]1C[C@@H](OC(C)=O)[C@]2(C)CC/C=C(\C)CCC[C@H](C)[C@H](O)[C@@H]1O2 ?
48.4 µM

Same again, this time with O=C(/C=C/c1ccccc1Cl)NC1C=Nc2ccc([N+](=O)[O-])cc2NC1 (configuration not stated)
> 100 µM
